test: Half life in Wistar rat at 10 mg/kg, po; assay type: ADME, organism-based; conditions: in vivo
experimental-endpoint: half-life (h)
Numbers only; they are read as h.

Kindly note the recorded half-life for O=C(NC1CCC(O)CC1)c1csc(-c2ccc(OC(F)F)c3oc4ccccc4c23)n1 (stereo unspecified) , which is 5

====

assay: Oral bioavailability in Wistar rat at 10 mg/kg; format: ADME, organism-based; conditions: in vivo
experimental-endpoint: bioavailability (%)
Numbers only here, please. The scale is %.

Noted for O=C(NC1CCC(O)CC1)c1csc(-c2ccc(OC(F)F)c3oc4ccccc4c23)n1 (stereo unspecified) : its bioavailability reads 42

====

target: 3',5'-cyclic-AMP phosphodiesterase 4B (Homo sapiens); experiment: Inhibition of human PDE4B using [3H]cAMP as substrate at 100 nM incubated for 5 mins followed by substrate addition and measured after 10 mins by scintillation proximity assay relative to control; details: time 15.0 min
Sequence (Q07343 whole entry): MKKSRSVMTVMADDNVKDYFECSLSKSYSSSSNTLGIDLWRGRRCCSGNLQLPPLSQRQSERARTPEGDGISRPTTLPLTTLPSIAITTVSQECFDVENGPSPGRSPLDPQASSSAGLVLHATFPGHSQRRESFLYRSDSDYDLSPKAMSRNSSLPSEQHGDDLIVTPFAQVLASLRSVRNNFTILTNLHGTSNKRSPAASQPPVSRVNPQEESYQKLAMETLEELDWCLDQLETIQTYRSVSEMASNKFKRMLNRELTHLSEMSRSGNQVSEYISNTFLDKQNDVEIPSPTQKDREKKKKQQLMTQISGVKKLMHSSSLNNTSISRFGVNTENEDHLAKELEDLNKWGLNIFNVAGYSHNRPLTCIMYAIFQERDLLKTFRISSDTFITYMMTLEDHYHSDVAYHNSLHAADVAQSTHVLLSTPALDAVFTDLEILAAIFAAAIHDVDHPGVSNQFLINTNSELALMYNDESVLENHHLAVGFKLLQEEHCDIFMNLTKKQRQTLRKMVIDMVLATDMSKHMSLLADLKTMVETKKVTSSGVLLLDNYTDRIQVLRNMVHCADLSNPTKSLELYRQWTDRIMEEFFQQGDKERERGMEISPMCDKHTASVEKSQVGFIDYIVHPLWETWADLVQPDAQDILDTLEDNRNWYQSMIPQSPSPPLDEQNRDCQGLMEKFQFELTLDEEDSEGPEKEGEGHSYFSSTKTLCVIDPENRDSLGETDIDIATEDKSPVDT
experimental-endpoint: inhibition (%)
Kindly provide the numeric value in % only, without the unit symbol.

Example results:
molecule: CCNC(=O)c1nc(-c2ccc(OC)c3oc4ccccc4c23)sc1C
inhibition / %: 24.6
//
molecule: COc1ccc(-c2nc(C(=O)NC3CCC(O)CC3)c(C)s2)c2c1oc1ccccc12 (stereo not given)
inhibition / %: 62.6
//
molecule: COc1ccc(-c2nc(-c3cccc(C(=O)O)n3)cs2)c2c1oc1ccccc12
inhibition / %: 18.2
//
molecule: COc1ccc(-c2nc(C(=O)Nc3ccc(Cl)cc3)cs2)c2c1oc1ccccc12
inhibition / %: 1.2
//
molecule: CONC(=O)c1nc(-c2ccc(OC(F)F)c3oc4ccc(NS(C)(=O)=O)cc4c23)sc1C
inhibition / %: 81.2
//
molecule: COc1ccc(-c2nc(C(=O)Nc3c(Cl)cncc3Cl)cs2)c2c1oc1ccccc12
inhibition / %: 70.3

Reported inhibition (3',5'-cyclic-AMP phosphodiesterase 4B (Homo sapiens)) for entry O=C(NC1CCC(O)CC1)c1csc(-c2ccc(OC(F)F)c3oc4ccccc4c23)n1 (stereo not given) is 65.3

Recorded inhibition for COc1ccc(-c2nc(C(N)=O)cs2)c2c1oc1ccccc12 on 3',5'-cyclic-AMP phosphodiesterase 4B (Homo sapiens) was 15.4

Reported 3',5'-cyclic-AMP phosphodiesterase 4B (Homo sapiens) inhibition for item CS(=O)(=O)Nc1ccc2oc3c(OC(F)F)ccc(-c4nc(C(=O)Nc5c(Cl)cncc5Cl)cs4)c3c2c1 was 43.4

Given the molecule COc1ccc(-c2csc(-c3ccc(OC)c4oc5ccccc5c34)n2)cc1 and test system 3',5'-cyclic-AMP phosphodiesterase 4B (Homo sapiens), the measured inhibition is 19.4

====

system: Mus musculus; assay: Antiinflammatory activity in Swiss albino mouse model of LPS-induced sepsis assessed as reduction in TNFalpha production at 10 mg/kg, po administered 30 mins before LPS stimulation and measured after 90 min by ELISA relative to control; type: functional; details: 2 h, time 120 min
Property: inhibition in vivo at 10 mg/kg; scope: individual compounds
# number only, unit % dropped from output

compound: CONC(=O)c1csc(-c2ccc(OC(F)F)c3oc4ccccc4c23)n1
tgt: Mus musculus
observed-measurement: 40.7

compound: CS(=O)(=O)Nc1ccc2oc3c(OC(F)F)ccc(C(=O)Nc4c(Cl)cncc4Cl)c3c2c1
tgt: Mus musculus
observed-measurement: 72.5

compound: COc1ccc(-c2nc(C(=O)Nc3c(Cl)cncc3Cl)cs2)c2c1oc1ccccc12
tgt: Mus musculus
observed-measurement: 37.8

Continue with the next compound.
inhibition in vivo at 10 mg/kg on Mus musculus for COc1ccc(-c2nc(C(=O)NC3CCC(O)CC3)cs2)c2c1oc1ccccc12 (centres undefined) is 46.7

Recorded values, source ChEMBL document CHEMBL4715779.
